test system: Transthyretin (Homo sapiens), P02766 [V50M]; test: Inhibition of acid mediated TTR V30M mutant (unknown origin) aggregation under pH 4.7 at 20 uM measured upto 6 days by thioflavin-T fluorescence assay; details: time <= 6.0 day
Active and inactive are the calls of the source. No cut-off for these calls is given here.
# output must be one of 1 for active, 0 for inactive

entry-smiles: CC(C)=CCc1c2c(c(O)c3c(=O)c(-c4ccc(O)c(O)c4)coc13)C=CC(C)(C)O2
label-value: 1

IN: Given "CC1(C)C=Cc2c(cc(O)c3c(=O)c(-c4ccc(O)cc4)coc23)O1" , state the outcome it received in this test.
OUT: 1

IN: Given "CC1(C)C=Cc2c(cc3occ(-c4ccc(O)cc4)c(=O)c3c2O)O1" , state the outcome it received in this test.
OUT: 1

IN: Given "CC(C)=CCOc1ccc(-c2coc3c4c(cc(O)c3c2=O)OC(C)(C)C=C4)cc1" , state the outcome it received in this test.
OUT: 0

IN: Given "CC(C)=CCc1cc(-c2coc3c4c(cc(O)c3c2=O)OC(C)(C)C=C4)ccc1O" , state the outcome it received in this test.
OUT: 0

----------
tested on: Transthyretin (Homo sapiens), P02766 [V50M]; experiment: Inhibition of acid mediated TTR V30M mutant (unknown origin) aggregation under pH 4.7 at 20 uM measured upto 6 days by thioflavin-T fluorescence assay; conditions: time <= 6.0 day
Active and inactive are the calls of the source. The rule behind the calls is not given here.
# output must be one of active, inactive

entry-smiles: CC(C)=CCOc1ccc(-c2coc3cc4c(c(O)c3c2=O)C=CC(C)(C)O4)cc1
label-value: inactive
--
entry-smiles: CC(C)=CCc1c2c(c3occ(-c4ccc(O)cc4O)c(=O)c3c1O)C=CC(C)(C)O2
label-value: active
--
entry-smiles: C=CC(C)(C)c1cc(-c2coc3cc4c(c(O)c3c2=O)C=CC(C)(C)O4)ccc1O
label-value: inactive

Next molecule, please.
IN: Given "CC(C)=CCc1cc(-c2coc3cc4c(c(O)c3c2=O)C=CC(C)(C)O4)ccc1O" , state the outcome it received in this test.
OUT: inactive
